Data provenance: patent US7423054B2

TGT: human norepinephrine transporter (hNET) (Homo sapiens, UniProt P23975)
Sequence (P23975 whole entry): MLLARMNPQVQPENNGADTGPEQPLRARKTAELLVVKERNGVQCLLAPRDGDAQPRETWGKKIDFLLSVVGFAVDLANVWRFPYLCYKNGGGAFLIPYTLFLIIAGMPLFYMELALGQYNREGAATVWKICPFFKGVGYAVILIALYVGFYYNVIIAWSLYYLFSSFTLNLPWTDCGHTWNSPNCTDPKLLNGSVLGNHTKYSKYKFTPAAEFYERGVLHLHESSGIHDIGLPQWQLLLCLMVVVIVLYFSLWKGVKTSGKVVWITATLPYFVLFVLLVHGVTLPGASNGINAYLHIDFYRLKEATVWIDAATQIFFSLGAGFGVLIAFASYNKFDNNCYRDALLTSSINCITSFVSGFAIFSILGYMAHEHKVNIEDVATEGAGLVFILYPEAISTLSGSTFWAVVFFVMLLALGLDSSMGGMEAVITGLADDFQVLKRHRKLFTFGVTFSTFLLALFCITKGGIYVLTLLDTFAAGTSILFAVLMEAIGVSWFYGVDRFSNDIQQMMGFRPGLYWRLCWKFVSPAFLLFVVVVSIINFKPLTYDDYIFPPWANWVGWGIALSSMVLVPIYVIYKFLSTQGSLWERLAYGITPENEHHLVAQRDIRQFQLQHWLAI
Where a name gives a salt, the structure may show the parent alone.
OBSERVED_PROPERTY: pKi
Friendly reminder that pKi comes from taking -log10 of the concentration in mol/L.

COMPOUND: Cc1cccc2c(OC3CCNCC3)nn(-c3ccccc3)c12 [Example 59, hydrochloride]
OBSERVED_PROPERTY: pKi
MEASUREMENT: 7.16
//
COMPOUND: Fc1ccccc1-n1nc(OC[C@@H]2CNCCO2)c2ccccc21 [Example 2, maleate]
OBSERVED_PROPERTY: pKi
MEASUREMENT: 8.03
//
COMPOUND: Fc1ccc2c(OCC3CCCNC3)nn(-c3ccccc3F)c2c1 (racemic) [Example 70, hydrochloride]
OBSERVED_PROPERTY: pKi
MEASUREMENT: 7.47

Please examine the following record next.
Q. Answer briefly: pKi recorded on human norepinephrine transporter (hNET) (Homo sapiens, UniProt P23975) for Fc1ccc(-n2nc(OC[C@@H]3CCNC3)c3c(F)cccc32)c(F)c1 [Example 92, hydrochloride]
A. 7.55

----------
# log10(Ki) per entry
TGT: human serotonin transporter (hSERT) (Homo sapiens)
Sequence (P31645 whole entry): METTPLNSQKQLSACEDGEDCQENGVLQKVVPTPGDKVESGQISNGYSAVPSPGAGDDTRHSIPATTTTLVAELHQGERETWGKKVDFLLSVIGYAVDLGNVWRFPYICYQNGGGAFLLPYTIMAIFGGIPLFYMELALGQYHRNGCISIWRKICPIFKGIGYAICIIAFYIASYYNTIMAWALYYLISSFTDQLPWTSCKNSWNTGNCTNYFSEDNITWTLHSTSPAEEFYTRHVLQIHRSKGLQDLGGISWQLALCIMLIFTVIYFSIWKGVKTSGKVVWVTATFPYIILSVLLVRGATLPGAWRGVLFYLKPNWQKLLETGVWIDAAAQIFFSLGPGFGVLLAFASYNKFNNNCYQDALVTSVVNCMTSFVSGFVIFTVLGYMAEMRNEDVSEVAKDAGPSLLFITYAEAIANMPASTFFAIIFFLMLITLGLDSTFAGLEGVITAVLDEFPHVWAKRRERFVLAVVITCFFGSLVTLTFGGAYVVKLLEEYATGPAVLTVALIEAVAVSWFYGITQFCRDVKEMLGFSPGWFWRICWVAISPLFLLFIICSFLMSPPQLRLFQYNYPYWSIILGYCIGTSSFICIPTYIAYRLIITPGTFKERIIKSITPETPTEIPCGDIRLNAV
Structures can show the parent of a compound that is named as a salt.
All values: base-10 log of Ki in nM.

Observe how each entry below is paired with its result.
COMPOUND: Fc1ccc2c(c1)c(OC1CCNCC1)nn2-c1c(F)cccc1F [Example 108, hydrochloride]
OBSERVED_PROPERTY: log10(Ki)
MEASUREMENT: 1.63

COMPOUND: COc1cccc2c(OC3CCNCC3)nn(-c3ccccc3)c12 [Example 60, hydrochloride]
OBSERVED_PROPERTY: log10(Ki)
MEASUREMENT: 1.88

COMPOUND: Clc1cc(Cl)cc(-n2nc(OC3CCNCC3)c3ccccc32)c1 [Example 29, hydrochloride]
OBSERVED_PROPERTY: log10(Ki)
MEASUREMENT: 2.53

COMPOUND: Fc1ccc(-n2nc(OC[C@H]3CCNC3)c3ccccc32)c(F)c1 [Example 8, hydrochloride]
OBSERVED_PROPERTY: log10(Ki)
MEASUREMENT: 1.59

COMPOUND: Fc1cc2c(OC3CCNCC3)nn(-c3ccccc3)c2cc1F [Example 87, hydrochloride]
OBSERVED_PROPERTY: log10(Ki)
MEASUREMENT: 1.76

COMPOUND: Cl.Fc1ccccc1-n1nc(OC[C@H]2CCNC2)c2ccccc21 [Example 7, hydrochloride]
OBSERVED_PROPERTY: log10(Ki)
MEASUREMENT: 1.74

COMPOUND: Fc1ccccc1-n1nc(OC[C@@H]2CNCCO2)c2ccccc21 [Example 2, maleate]
OBSERVED_PROPERTY: log10(Ki)
MEASUREMENT: 3.21

COMPOUND: c1ccc(-n2nc(OC[C@@H]3CNCCO3)c3ccccc32)cc1 [Example 21, hydrochloride]
OBSERVED_PROPERTY: log10(Ki)
MEASUREMENT: 3.05

COMPOUND: CC1(COc2nn(-c3ccccc3F)c3ccc(F)cc23)CCCNC1 (stereo not drawn)
OBSERVED_PROPERTY: log10(Ki)
MEASUREMENT: 1.66

COMPOUND: Fc1ccc(-n2nc(OC3CCNCC3)c3c(F)cccc32)cc1 [Example 83, hydrochloride]
OBSERVED_PROPERTY: log10(Ki)
MEASUREMENT: 2.28

Q. Answer briefly: log10(Ki) recorded on human serotonin transporter (hSERT) (Homo sapiens) for Fc1cccc(F)c1-n1nc(OC[C@H]2CCNC2)c2ccccc21 [Example 37, hydrochloride]
A. 2.02

Q. Answer briefly: log10(Ki) recorded on human serotonin transporter (hSERT) (Homo sapiens) for Fc1ccc(-n2nc(OC3CCNCC3)c3cc(F)ccc32)c(F)c1 [Example 56, hydrochloride]
A. 1.00

Q. Answer briefly: log10(Ki) recorded on human serotonin transporter (hSERT) (Homo sapiens) for Fc1ccc2c(OCC3CCCNC3)nn(-c3ccccc3F)c2c1 (racemic) [Example 70, hydrochloride]
A. 2.30

Q. Answer briefly: log10(Ki) recorded on human serotonin transporter (hSERT) (Homo sapiens) for Fc1ccc(F)c(-n2nc(OC[C@H]3CCCNC3)c3ccccc32)c1 [Example 38, hydrochloride]
A. 2.30

Q. Answer briefly: log10(Ki) recorded on human serotonin transporter (hSERT) (Homo sapiens) for Fc1ccccc1-n1nc(OC2CCNCC2)c2c(F)cccc21 [Example 100, hydrochloride]
A. 2.01

Q. Answer briefly: log10(Ki) recorded on human serotonin transporter (hSERT) (Homo sapiens) for Fc1ccccc1-n1nc(OC2CCNCC2)c2cc(Cl)ccc21 [Example 102, hydrochloride]
A. 2.11

Q. Answer briefly: log10(Ki) recorded on human serotonin transporter (hSERT) (Homo sapiens) for Fc1ccc(-n2nc(OC[C@H]3CCCNC3)c3c(F)cccc32)cc1 [Example 84, hydrochloride]
A. 2.69

Q. Answer briefly: log10(Ki) recorded on human serotonin transporter (hSERT) (Homo sapiens) for Fc1ccc2c(c1)c(OC1CCNCC1)nn2-c1ccc(F)c(F)c1 [Example 97, hydrochloride]
A. 1.60

Q. Answer briefly: log10(Ki) recorded on human serotonin transporter (hSERT) (Homo sapiens) for Clc1ccc(-n2nc(OCC3CCCNC3)c3ccccc32)cc1 (racemic) [Example 68, hydrochloride]
A. 2.56

Q. Answer briefly: log10(Ki) recorded on human serotonin transporter (hSERT) (Homo sapiens) for Fc1ccc2c(c1)c(OCC1CCCNC1)nn2-c1ccccc1F (racemic) [Example 57, hydrochloride]
A. 1.72

Q. Answer briefly: log10(Ki) recorded on human serotonin transporter (hSERT) (Homo sapiens) for Fc1ccccc1-n1nc(OC[C@@H]2CCNC2)c2ccccc21 [Example 11, hydrochloride]
A. 2.45

Q. Answer briefly: log10(Ki) recorded on human serotonin transporter (hSERT) (Homo sapiens) for Fc1cccc(-n2nc(OC[C@H]3CCCNC3)c3c(F)cccc32)c1 [Example 82, hydrochloride]
A. 2.80

Q. Answer briefly: log10(Ki) recorded on human serotonin transporter (hSERT) (Homo sapiens) for c1ccc(-n2nc(OC[C@H]3CCNC3)c3ccccc32)cc1 [Example 22, hydrochloride]
A. 1.83

Q. Answer briefly: log10(Ki) recorded on human serotonin transporter (hSERT) (Homo sapiens) for c1ccc(-n2nc(OC[C@H]3CCCNC3)c3cccnc32)cc1 [Example 104, hydrochloride]
A. 3.20

Q. Answer briefly: log10(Ki) recorded on human serotonin transporter (hSERT) (Homo sapiens) for Fc1ccc(-n2nc(OC3CCNCC3)c3c(F)cccc32)c(F)c1 [Example 88, hydrochloride]
A. 1.94

Q. Answer briefly: log10(Ki) recorded on human serotonin transporter (hSERT) (Homo sapiens) for "CC1(COc2nn(-c3ccccc3F)c3ccc(F)cc23)CCNCC1"
A. 1.45

Q. Answer briefly: log10(Ki) recorded on human serotonin transporter (hSERT) (Homo sapiens) for Fc1ccc(-n2nc(OC[C@H]3CCCNC3)c3cc(F)ccc32)c(F)c1 [Example 49, hydrochloride]
A. 1.31

Q. Answer briefly: log10(Ki) recorded on human serotonin transporter (hSERT) (Homo sapiens) for Fc1ccc2c(c1)c(OC[C@H]1CCCNC1)nn2-c1ccccc1F [Example 45, maleate]
A. 1.68

Q. Answer briefly: log10(Ki) recorded on human serotonin transporter (hSERT) (Homo sapiens) for Fc1ccc(F)c(-n2nc(OC[C@@H]3CCNC3)c3c(F)cccc32)c1 [Example 93, hydrochloride]
A. 2.35
